# Test system: Crude diglycosidase
# Test Name: Examination of temperature in the conversion into isoflavone aglycons by diglycosidase using soybean materials
# Type: biochemical, Penicillium multicolor IAM7153
# Setup Conditions: 65° C., heat treatment of enzyme yes, reaction time 6 h
Property: Decomposition efficiency of genistin family in defatted soybean (%)

1. O=c1c(-c2ccc(O)cc2)coc2cc(O[C@@H]3O[C@H](CO)[C@@H](O)[C@H](O)[C@H]3O)cc(O)c12 :: 28.2
2. O=C(O)CC(=O)OC[C@H]1O[C@@H](Oc2cc(O)c3c(=O)c(-c4ccc(O)cc4)coc3c2)[C@H](O)[C@@H](O)[C@@H]1O :: 39.7
3. CC(=O)OC[C@H]1O[C@@H](Oc2cc(O)c3c(=O)c(-c4ccc(O)cc4)coc3c2)[C@H](O)[C@@H](O)[C@@H]1O :: 1.3
4. O=c1c(-c2ccc(O)cc2)coc2cc(O)cc(O)c12 :: 30.7

---

# Tested on: Crude diglycosidase
# Test Name: Examination of substrate concentration in the conversion into isoflavone aglycons by diglycosidase using soybean materials;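 further: percent of the isoflavone family total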
# Assay type: biochemical, Penicillium multicolor IAM7153
# Setup Conditions: roasted soy flour, substrate concentration 2%, heat treatment of enzyme no, reaction time 1 h
# Experimental: Into 20 mM acetate buffer of pH 4.0 was suspended 0.1 g, 0.25 g, 0.5 g, 1.0 g, or 1.5 g of each of various soybean materials (roasted soy flour (manufactured by Fuji Shokuryo K.K.), soymilk (manufactured by Gitoh Shokuhin K.K.), defatted soybean (manufactured by Fuji Seiyu K.K.), concentrated soybean protein (manufactured by Fuji Seiyu K.K.)). The pH of the suspension was measured and the liquid volume was adjusted to 4.5 mL while the pH was adjusted to 4.0 with 1N hydrochloric acid. […]
Property: Decomposition efficiency: ratio of each glycoside/aglycon within its isoflavone family

1. COc1cc2c(=O)c(-c3ccc(O)cc3)coc2cc1O[C@@H]1O[C@H](COC(C)=O)[C@@H](O)[C@H](O)[C@H]1O :: not detected
2. CC(=O)OC[C@H]1O[C@@H](Oc2cc(O)c3c(=O)c(-c4ccc(O)cc4)coc3c2)[C@H](O)[C@@H](O)[C@@H]1O :: 10.6%
3. CC(=O)OC[C@H]1O[C@@H](Oc2ccc3c(=O)c(-c4ccc(O)cc4)coc3c2)[C@H](O)[C@@H](O)[C@@H]1O :: 9.2%
4. COc1cc2c(=O)c(-c3ccc(O)cc3)coc2cc1O[C@@H]1O[C@H](CO)[C@@H](O)[C@H](O)[C@H]1O :: not detected
5. COc1cc2c(=O)c(-c3ccc(O)cc3)coc2cc1O[C@@H]1O[C@H](COC(=O)CC(=O)O)[C@@H](O)[C@H](O)[C@H]1O :: not detected
6. O=c1c(-c2ccc(O)cc2)coc2cc(O[C@@H]3O[C@H](CO)[C@@H](O)[C@H](O)[C@H]3O)ccc12 :: not detected
7. O=C(O)CC(=O)OC[C@H]1O[C@@H](Oc2cc(O)c3c(=O)c(-c4ccc(O)cc4)coc3c2)[C@H](O)[C@@H](O)[C@@H]1O :: not detected
8. O=c1c(-c2ccc(O)cc2)coc2cc(O[C@@H]3O[C@H](CO)[C@@H](O)[C@H](O)[C@H]3O)cc(O)c12 :: not detected
9. COc1cc2c(=O)c(-c3ccc(O)cc3)coc2cc1O :: 100.0%
10. O=C(O)CC(=O)OC[C@H]1O[C@@H](Oc2ccc3c(=O)c(-c4ccc(O)cc4)coc3c2)[C@H](O)[C@@H](O)[C@@H]1O :: not detected
